Record form. Attribute: Activity. Fill in for each entry.
- Target Under Test: Histone-arginine methyltransferase CARM1 (Homo sapiens) (UniProt Q86X55)
- Sequence (Q86X55 whole entry): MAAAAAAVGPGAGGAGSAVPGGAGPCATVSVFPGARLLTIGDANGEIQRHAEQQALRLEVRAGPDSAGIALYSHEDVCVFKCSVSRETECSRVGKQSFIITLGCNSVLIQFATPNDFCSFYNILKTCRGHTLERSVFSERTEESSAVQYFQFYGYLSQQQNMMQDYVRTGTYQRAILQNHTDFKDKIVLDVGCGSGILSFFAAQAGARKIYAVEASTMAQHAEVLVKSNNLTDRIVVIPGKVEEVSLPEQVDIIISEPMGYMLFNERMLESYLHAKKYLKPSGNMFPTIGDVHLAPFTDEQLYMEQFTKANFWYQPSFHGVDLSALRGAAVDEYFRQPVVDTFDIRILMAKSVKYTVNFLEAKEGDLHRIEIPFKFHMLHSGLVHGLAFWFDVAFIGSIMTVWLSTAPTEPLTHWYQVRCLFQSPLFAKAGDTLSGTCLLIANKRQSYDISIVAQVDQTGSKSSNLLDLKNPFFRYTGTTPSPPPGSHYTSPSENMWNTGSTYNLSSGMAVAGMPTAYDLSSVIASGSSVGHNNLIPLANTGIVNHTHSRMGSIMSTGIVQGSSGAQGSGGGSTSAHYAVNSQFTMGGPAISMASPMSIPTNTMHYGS
- Procedure Text: Activation of recombinant CARM1 using histone H3 as substrate and [3H]-SAM at 50 uM after 90 mins by scintillation counting
Kindly answer with a numeric value in %, unit omitted.

Endpoint output: Activity of O=C(Nc1ccc2c(O)cc(S(=O)(=O)O)cc2c1)Nc1ccc2c(O)cc(S(=O)(=O)O)cc2c1 . Value?
74

And then COC(=O)c1c[nH]c2ccc(NC(=O)CNC(=O)Nc3ccc(C)cc3)cc12 , what is it?
39.7

Moving on to CCOC(=O)c1cc2cc(NC(=O)CNC(=O)Nc3ccc(C#N)cc3)ccc2[nH]1
115

Query COC(=O)c1c[nH]c2ccc(NC(=O)CNC(=O)Nc3ccc(OC)cc3)cc12 next
62.7

Proceed to CCOC(=O)c1cc2cc(NC(=O)CNC(=O)Nc3ccc([N+](=O)[O-])cc3)ccc2[nH]1
176

Also check COC(=O)c1c[nH]c2ccc(NC(=O)CNC(=O)Nc3ccc(C#N)cc3)cc12
135

Ok, now O=C(CNC(=O)Nc1ccccc1)Nc1ccc2[nH]c(C(=O)O)cc2c1
167

Another compound: N#Cc1ccc(NC(=O)NCC(=O)Nc2ccc3[nH]c(C(=O)O)cc3c2)cc1
143

Would you mind doing COC(=O)c1c[nH]c2ccc(NC(=O)CNC(=O)Nc3ccc(N(C)C)cc3)cc12 as well?
125
